target: Trypsin (Homo sapiens, UniProt P07477+P07478+P35030); test: Inhibitory activity against human trypsin (using Chromozym TH as the substrate); type: protein assay
Mark fulfilled for Ki under 1000 nM, not fulfilled if at or over.

Study these solved cases before continuing.
Request: Lab note: confirm whether the reported Ki for this compound is below 1000 nM, equality not counting. compound: `N=C(N)NNS(=O)(=O)c1cccc2ccccc12`
Response: not fulfilled

Request: Would you mind doing `N=C(N)NS(=O)(=O)c1cccs1` as well?
Response: not fulfilled

Request: For `COC(=N)NS(=O)(=O)c1c(C)cc(C)cc1C` then?
Response: not fulfilled

---
Request: Quick check: Ki of `N=C(N)NS(=O)(=O)c1ccc(N)cc1` under 1000 nM?
Response: not fulfilled

Request: Similarly, N=C(N)NCCCNC(=O)[C@@H]1CCCCN1C(=O)C(CC1CCCCC1)NCC(=O)O (stereo not given in full) ?
Response: fulfilled

Cited source: ChEMBL document CHEMBL1132933
